tested on: T. vaginalis; test: Trichomonas resorufin assay; type: cell-based; settings: Trichomonas vaginalis, read-out: IC50 T. vaginalis
pIC50: −log10 of the molar value.
experimental readout: pIC50

For every item below, please supply its pIC50.
1. CCCCCC[N+](C)(C)CCNC(=O)c1cc(NC(=O)c2cc(NC(=O)c3ccc(/C=C/c4cnc5ccccc5c4)cc3)cn2C)cn1C [Ic5]
2. CCCC[N+](C)(C)CCNC(=O)c1cc(NC(=O)c2cc(NC(=O)c3ccc(/C=C/c4cnc5ccccc5c4)cc3)cn2C)cn1C [Ic3]

OUT:
1: 5.30 to 6.00; 2: 5.30 to 6.00

For every item below, please supply its pIC50.
1. Cn1cc(NC(=O)c2ccc(/C=C/c3cnc4ccccc4c3)cc2)cc1C(=O)Nc1cc(C(=O)N2CCCCCC2)n(C)c1 [IVb3]
2. CCCC/N=C(\CCNC(=O)c1cc(NC(=O)c2cc(NC(=O)c3ccc(/C=C/c4ccc(N(C)C)cc4)nc3)cn2C)cn1C)NCCCC [Ia39]

OUT:
["4.30 to 5.30", "4.30 to 5.30"]
